// data source = patent US20260109763A1

# study-target: T1, human PILRA R78 extracellular domain (recombinant) (human, UniProt Q9UKJ1 20-197)
# T1 construct: also called hPILRA R78
# T1 sequence (Q9UKJ1 20-197 limits assumed): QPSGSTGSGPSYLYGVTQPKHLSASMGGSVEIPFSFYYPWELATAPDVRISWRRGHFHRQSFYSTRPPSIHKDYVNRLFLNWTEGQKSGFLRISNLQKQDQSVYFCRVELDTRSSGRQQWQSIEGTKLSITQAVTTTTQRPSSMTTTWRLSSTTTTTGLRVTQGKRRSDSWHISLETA
# procedure-text: SPR
pKd: −log10 of the molar value.

binder | pKd
Anti-PILRA antibody clone 35 (antibody, V domains shown, Humanized; also called Ab.35) VH: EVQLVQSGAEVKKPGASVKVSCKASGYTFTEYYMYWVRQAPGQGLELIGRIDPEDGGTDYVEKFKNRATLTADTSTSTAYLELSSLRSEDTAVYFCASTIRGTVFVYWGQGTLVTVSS VL: DIQMTQSPSSLSASVGDRVTITCRPSEDIYNGLAWYQQKPGKSPKLLIYNANSLHTGVPSRFSGSGSGTDYTLTISSLQPEDFATYFCQQYYDYPLTFGQGTKVEIK | 7.60
